// IC50 lookup, one value per entry
target: human PF4 (Homo sapiens); construct: PF4 is a 70 amino acid, lysine-rich 7.8 kDa platelet-specific protein; made in house; host or cells: Escherichia coli BL21DE3 pLysS (pT7-7) and/or Drosophila S2 cells; assay: Inhibition of PF4 tetramer formation (BS3 cross-linking, SDS-PAGE); type: biochemical; settings: read-out: IC50 of PF4 tetramer formation inhibition

Recorded results for 2 compounds are shown here.
- compound: "COC(=O)CCCC(=O)C1C(=O)c2ccc(-c3ccc4c(c3)C(=O)C(C(=O)CCCC(=O)OC)C4=O)cc2C1=O (stereo not drawn)"
  IC50: "4 µM"
- compound: "COC(=O)N1CCC[C@H]1C(=O)C1C(=O)c2ccc(-c3ccc4c(c3)C(=O)C(C(=O)[C@@H]3CCCN3C(=O)OC)C4=O)cc2C1=O (stereo partly drawn)"
  IC50: "4.8 µM"

// next item, IC50 requested
INPUT: Give its IC50 value. Item: O=C(c1ccc2c(c1)C(=O)C(C(=O)CC1CC1)C2=O)c1ccc2c(c1)C(=O)C(C(=O)CC1CC1)C2=O (stereo not drawn)
OUTPUT: 4.7 µM

====

Parameter: log10 IC50. Scope: all listed entries.
molecular target: human PF4 (Homo sapiens, UniProt P02776); construct: PF4 is a 70 amino acid, lysine-rich 7.8 kDa platelet-specific protein; made in house; host or cells: Escherichia coli BL21DE3 pLysS (pT7-7) and/or Drosophila S2 cells; test: Inhibition of PF4 tetramer formation (BS3 cross-linking, SDS-PAGE); format: biochemical; conditions: read-out: IC50 of PF4 tetramer formation inhibition
Sequence (P02776 32-101): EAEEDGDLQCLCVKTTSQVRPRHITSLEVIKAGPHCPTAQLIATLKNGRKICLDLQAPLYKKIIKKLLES
In plain terms, each number is the log10 of measured IC50 in µM.

Worked cases, log10 IC50 given:
- compound: "CCCCNC(=O)C1C(=O)c2ccc(C(=O)c3ccc4c(c3)C(=O)C(C(=O)NCCCC)C4=O)cc2C1=O (stereo not drawn)"
  test readout: "log10 IC50"
  meas value: 0.36
- compound: "O=C(c1ccc2c(c1)C(=O)CC2=O)c1ccc2c(c1)C(=O)CC2=O"
  test readout: "log10 IC50"
  meas value: 0.60
- compound: "CC(C)(C)OC(=O)N1CC[C@H]1C(=O)C1C(=O)c2ccc(S(=O)(=O)c3ccc4c(c3)C(=O)C(C(=O)[C@@H]3CCN3C(=O)OC(C)(C)C)C4=O)cc2C1=O (stereo partly drawn)"
  test readout: "log10 IC50"
  meas value: 0.61
- compound: "O=C(O)CCCC(=O)C1C(=O)c2ccc(-c3ccc4c(c3)C(=O)C(C(=O)CCCC(=O)O)C4=O)cc2C1=O (stereo not drawn)"
  test readout: "log10 IC50"
  meas value: 0.26
- compound: "CC(C)(C)OC(=O)N1CC[C@H]1C(=O)C1C(=O)c2ccc(C(=O)c3ccc4c(c3)C(=O)C(C(=O)[C@@H]3CCN3C(=O)OC(C)(C)C)C4=O)cc2C1=O (stereo partly drawn)"
  test readout: "log10 IC50"
  meas value: 0.52

INPUT: Which log10 IC50 is listed for CCOCC(=O)C1C(=O)c2ccc(Oc3ccc4c(c3)C(=O)C(C(=O)COCC)C4=O)cc2C1=O (stereo not drawn) ?
OUTPUT: 0.48

INPUT: Give its log10 IC50 value. Item: O=C(Cn1cccn1)C1C(=O)c2ccc(S(=O)(=O)c3ccc4c(c3)C(=O)C(C(=O)Cn3cccn3)C4=O)cc2C1=O (stereo not drawn)
OUTPUT: 0.85

INPUT: Entry COc1cccc(NC(=O)C2C(=O)c3ccc(S(=O)(=O)c4ccc5c(c4)C(=O)C(C(=O)Nc4cccc(OC)c4)C5=O)cc3C2=O)c1 (stereo not drawn) : reported log10 IC50 = ?
OUTPUT: 0.08

INPUT: Which value of log10 IC50 has been reported for CC(=O)c1cccc(NC(=O)C2C(=O)c3ccc(C(=O)c4ccc5c(c4)C(=O)C(C(=O)Nc4cccc(C(C)=O)c4)C5=O)cc3C2=O)c1 (stereo not drawn) in the records?
OUTPUT: -0.30

INPUT: Name the reported log10 IC50 value associated with the compound COc1ccccc1NC(=O)C1C(=O)c2ccc(C(=O)c3ccc4c(c3)C(=O)C(C(=O)Nc3ccccc3OC)C4=O)cc2C1=O (stereo not drawn)
OUTPUT: -0.19

INPUT: What value of log10 IC50 has been reported for the following compound? CSCCC(=O)C1C(=O)c2ccc(C(=O)c3ccc4c(c3)C(=O)C(C(=O)CCSC)C4=O)cc2C1=O (stereo not drawn)
OUTPUT: 0.48

INPUT: Given O=C1c2ccc(S(=O)(=O)c3ccc4c(c3)C(=O)C(C(=O)C3CCCCC3)C4=O)cc2C(=O)C1C(=O)C1CCCCC1 (stereo not drawn) , state its recorded log10 IC50.
OUTPUT: 0.48

INPUT: Need log10 IC50, item C[C@@H]1CC[C@@H](C(=O)C2C(=O)c3ccc(-c4ccc5c(c4)C(=O)C(C(=O)[C@@H]4CC[C@@H](C)N4C(=O)OC(C)(C)C)C5=O)cc3C2=O)N1C(=O)OC(C)(C)C (stereo partly drawn)
OUTPUT: 0.60

INPUT: What log10 IC50 value was documented for this compound, O=C(CN1CCCC1=O)C1C(=O)c2ccc(S(=O)(=O)c3ccc4c(c3)C(=O)C(C(=O)CN3CCCC3=O)C4=O)cc2C1=O (stereo not drawn) ?
OUTPUT: 0.30

INPUT: Consider the compound shown here: COc1ccc(NC(=O)C2C(=O)c3ccc(S(=O)(=O)c4ccc5c(c4)C(=O)C(C(=O)Nc4ccc(OC)cc4)C5=O)cc3C2=O)cc1 (stereo not drawn) What is its recorded log10 IC50?
OUTPUT: 0.45

meta.source: patent US20250281424A1
